Tested on: Erysiphe graminis—ERYSGT
measurementDescription: Powdery Mildew of Wheat, in vivo whole plant, 24 Hour Protectant
experimentalSetup: Erysiphe; 100 ppm spray, wheat, 24 hour protectant; control of fungal infection vs untreated plants; read-out: ERYSGT in vivo 1 Day Protectant

| molecule | pest or weed control at 100 ppm |
| --- | --- |
| COc1ccnc(C(=O)N[C@@H](Cc2ccc(OCc3ccccc3)cc2)C(=O)O)c1O [Compound 337] | < 25% |
| COc1ccnc(C(=O)Nc2cccc(Oc3ccc(Cl)cc3)c2)c1O [Compound 440] | < 25% |
| COc1ccccc1Oc1ccc(NC(=O)c2nccc(OC)c2O)cc1 [Compound 433] | < 25% |
| COc1ccnc(C(=O)Nc2ccc(C(=O)Oc3cccc(C(F)(F)F)c3)cc2)c1O [Compound 451] | < 25% |
| COc1ccnc(C(=O)N[C@H]2COC(=O)[C@H](Cc3ccccc3)[C@@H](OC(=O)C3CC3)[C@H](C)OC2=O)c1O [Compound 387] | 25 to 74% |
| COc1ccnc(C(=O)Nc2ccc(OCc3ccc(C(F)(F)F)cc3)cc2)c1O [Compound 448] | < 25% |
| COc1ccnc(C(=O)Nc2cc(C)c(OC(=O)c3ccc(C(F)(F)F)cc3)c(C)c2)c1O [Compound 457] | < 25% |
| COc1ccnc(C(=O)Nc2ccc(Oc3ccccc3C#N)cc2)c1O [Compound 420] | < 25% |
| COc1ccnc(C(=O)N[C@H]2O[C@@H](C)[C@@H](OC(C)=O)[C@@H](OC(C)=O)[C@@H]2OC(C)=O)c1O [Compound 333] | < 25% |
| COc1ccnc(C(=O)N[C@H]2COC(=O)[C@H](Cc3ccccc3)[C@@H](OC(=O)C(C)(C)C)[C@H](C)OC2=O)c1O [Compound 388] | < 25% |
| COc1ccnc(C(=O)N[C@H]2COC(=O)[C@H](Cc3ccccc3)[C@@H](OC(=O)NC(C)(C)C)[C@H](C)OC2=O)c1O [Compound 400] | 25 to 74% |
| COc1ccnc(C(=O)Nc2ccc(Oc3ccc(OC(=O)C(C)C)cc3)cc2)c1O [Compound 436] | < 25% |
| COc1ccnc(C(=O)Nc2ccc(Oc3ccc(C(F)(F)F)cc3)cc2)c1O [Compound 425] | < 25% |
| COc1ccnc(C(=O)NC2COC(=O)CC3(CCCCC3)CC(=O)OC2)c1O [Compound 380] | 25 to 74% |
| COc1ccnc(C(=O)Nc2ccccc2Oc2ccc(C#N)cc2)c1O [Compound 419] | < 25% |
| COc1cccc(Oc2cccc(NC(=O)c3nccc(OC)c3O)c2)c1 [Compound 431] | < 25% |
